// reported percent inhibition of cell viability at 20 µM per item
- Test system: PC3 cells
- MEASUREMENT PROTOCOL: Cell Viability Assay (ATPlite 1step), PC3
- Format: cell-based
- CONDITION SUMMARY: Homo sapiens, PC-3; PC3, 20 uM compound, 72 hours; read-out: Cell Viability % inhibition PC3 (20 uM Cpd)
A number alone suffices; assume %.

Solved cases below.
[[record]]
molecule = "O=C(Nc1ccc(-c2ccccc2Cl)cn1)c1cncnc1 [Compound 4]"
experimental_result = 44.2

[[record]]
molecule = "CN1CCN(c2cccc(-c3ccc(NC(=O)c4cccnc4)nc3)c2)CC1 [Compound 36]"
experimental_result = 42.5

[[record]]
molecule = "O=C(Nc1ccc(-c2cccc(C3CC3)c2)cn1)c1cnccc1F [Compound 39]"
experimental_result = 28.7

[[record]]
molecule = "Cc1ncc(C(=O)Nc2ccc(-c3cc(C4CC4)cc(N4CCN(C)CC4)c3)cn2)cn1 [Compound 53]"
experimental_result = 67.1


COc1ccc(Cl)cc1-c1ccc(NC(=O)c2cncnc2)nc1 [Compound 21] yielded percent inhibition of cell viability at 20 µM of 15.3

Attribution: patent US12383533B2
